Collected kon values appear next to each entry.
- measuredOn: T1, CD137-hisFc fusion protein (Sino Biological Cat 10041-H03H) (human, UniProt Q07011 24-186)
- T1 construct: Bought; also called recombinant human CD137 (fused with human Fc and His tag); not shown: His tag and human Fc
- protocolNotes: BLI Octet, Fab;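 note: fab fragments expressed in E. coli, binding to human CD137 measured on Octet RED96, kinetics fitted with a 1:1 Langmuir model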
// unit must come after the numeric part

| binder | kon |
| --- | --- |
| Fab 5314 (Fab, V domains shown, Fab from E. coli; also called VH16/VL16) VH: EVQLVESGGGLVQPGGSLRLSCAASGFSLSTGGVAVGWIRQAPGKGLEWLALIDWAGDKSYSTSLKSRLTISRDNSKNTLYLQLNSLRAEDTAVYYCARGGSDTVLGDWFAYWGQGTLVTVSS VL: DIQLTQSPSSLSASVGDRVTITCRASQGVSPYLAWYQQKPGKAPKLLIYDASNRATGIPSRFSGSGSGTDFTLTISSLQPEDFATYYCQQGYSTWTFGQGTKVEIKR | 210000 M⁻¹ s⁻¹ |

# kon of Fab 5367 (Fab, V domains shown, Fab from E. coli; also called VH31/VL31) VH: EVQLVESGGGLVQPGGSLRLSCAASGFSLSTSGVGVGWIRQAPGKGLEWVSGISGAGDSTYYADSVKGRFTISRDNSKNTLYLQLNSLRAEDTAVYYCAREGSDTVLGDWFAYWGQGTLVTVSS VL: DIQLTQSPSSLSASVGDRVTITCRASQDIRSYLAWYQQKPGKAPKLLIYDASNRATGIPSRFSGSGSGTDFTLTISSLQPEDFATYYCQQGYSIWTFGQGTKVEIKR = 410000 M⁻¹ s⁻¹
